Hello, the source for this data is ChEMBL document CHEMBL4190350, in case you need it.

tested on: Mus musculus; assay: Toxicity in mouse EAC cells implanted Swiss albino mouse assessed as WBC count at 0.5 mg for 9 days (reference value: 23.96 10^3/mm3); format: organism-based; settings: in vivo, 216 h
READOUT LABEL: Activity (×10³ /mm3)
A number alone suffices; assume ×10³ /mm3.

Use the examples below as a reference point.
- COMPOUND: "CCOC(=O)/C(=N/Nc1sc2c(c1C(=O)OCC)CCCCC2)C(C)=O"
  Activity, ×10³ /mm3: 7.11
- COMPOUND: "CC(=O)C1(C(C)=O)N=Nc2sc3c(c2C1=O)CCCCC3"
  Activity, ×10³ /mm3: 9.11

According to the records, this compound CC1=NN=C(C)C1=NNc1sc2c(c1C(=O)NN)CCCCC2 displays Activity of 6.9
